Test system: esterase (bioH, yjfP, frsA, ybfF, yfbB, ypfH, yeiG, or yqiA) deletion mutants of E. coli
Type: cell-based
cond: single esterase gene deletion
assay.readout: reduction of antibacterial activity by deletion of the cytoplasmic esterase

O=C(O)CNC(=O)C(CO)NC(=O)CCC(=O)OCC(NC(=O)C(Cl)Cl)C(O)c1ccc([N+](=O)[O-])cc1 (stereo not shown) [Compound 1d] :: ~10%
NCCCCC(NC(=O)C(CCCCN)NC(=O)CCC(=O)OCC(NC(=O)C(Cl)Cl)C(O)c1ccc([N+](=O)[O-])cc1)C(=O)O (stereo not shown) [Compound 2b] :: about 20%
O=C(CCC(=O)OCC(NC(=O)C(Cl)Cl)C(O)c1ccc([N+](=O)[O-])cc1)NCC(=O)NC(CO)C(=O)O (stereo not shown) [Compound 1c] :: about 20%
NCCCCC(NC(=O)C(CCCCN)NC(=O)CCC(=O)OCC(NC(=O)C(Cl)Cl)C(O)c1ccc([N+](=O)[O-])cc1)C(=O)O (stereo not shown) [Compound 2c] :: about 20%

---

protocol.notes: Stability in human serum (LC-MS)
Format: in vitro ADME
cond: human serum, 200 μM, 37° C., 0 h
Numbered stars: 1 amine (or outer) side, 2 acyl side, 3 side chain; on linkers, the order of the positions; unused ones are H or OH. Square brackets hold non-standard residues; d marks the D form. Peptide text beside a SMILES is read from it. * marks the point of attachment. X1 = O=C(CCC(=O)[*:2])OCC(N[*:1])C(O)c1ccc([N+](=O)[O-])cc1; Dichloroacetyl = O=C(C(Cl)Cl)*
assay.readout: Compounds remaining (%) 0 h

Lab book: Compounds remaining (%) 0 h of NCCCCC(NC(=O)C(CCCCN)NC(=O)CCC(=O)OCC(NC(=O)C(Cl)Cl)C(O)c1ccc([N+](=O)[O-])cc1)C(=O)O (centres unmarked) [Compound 2c] noted as 100%

Noted for O=C(O)CNC(=O)C(CO)NC(=O)CCC(=O)OCC(NC(=O)C(Cl)Cl)C(O)c1ccc([N+](=O)[O-])cc1 (centres unmarked) : its Compounds remaining (%) 0 h reads 100%

compound O=C(CCC(=O)OCC(NC(=O)C(Cl)Cl)C(O)c1ccc([N+](=O)[O-])cc1)NCC(=O)NC(CO)C(=O)O (centres unmarked) , Compounds remaining (%) 0 h observed: 100%

Just so you know, measured Compounds remaining (%) 0 h for NCCCCC(NC(=O)CNC(=O)CCC(=O)OCC(NC(=O)C(Cl)Cl)C(O)c1ccc([N+](=O)[O-])cc1)C(=O)O (centres unmarked) came out at 100%

Entry O=C(O)CCC(=O)OC[C@@H](NC(=O)C(Cl)Cl)[C@H](O)c1ccc([N+](=O)[O-])cc1 [CLsu, chloramphenicol succinate, reference compound] , Compounds remaining (%) 0 h reported as 100%

The compound listed as NCCCCC(NC(=O)C(CCCCN)NC(=O)CCC(=O)OCC(NC(=O)C(Cl)Cl)C(O)c1ccc([N+](=O)[O-])cc1)C(=O)O (centres unmarked) [Compound 2b] has a reported Compounds remaining (%) 0 h of 100%

# compound O=C(CCC(=O)OCC(NC(=O)C(Cl)Cl)C(O)c1ccc([N+](=O)[O-])cc1)NCC(=O)NCC(=O)NC(Cc1ccccc1)C(=O)O (centres unmarked) ; its Compounds remaining (%) 0 h = 100%

Looking up O=C(CCC(=O)OCC(NC(=O)C(Cl)Cl)C(O)c1ccc([N+](=O)[O-])cc1)NCC(=O)NCC(=O)NC(Cc1ccccc1)C(=O)NC(Cc1ccccc1)C(=O)O (centres unmarked) [Compound 1o] (Dichloroacetyl-[X1]GGFF-OH; configuration not given here) , I see its Compounds remaining (%) 0 h listed as 100%

---

protocol.notes: Stability in human serum (LC-MS)
Assay type: in vitro ADME
cond: human serum, 200 μM, 37° C., 2 h
Numbered stars: 1 amine (or outer) side, 2 acyl side, 3 side chain; on linkers, the order of the positions; unused ones are H or OH. Square brackets hold non-standard residues; d marks the D form. Peptide text beside a SMILES is read from it. * marks the point of attachment. X1 = O=C(CCC(=O)[*:2])OCC(N[*:1])C(O)c1ccc([N+](=O)[O-])cc1; Dichloroacetyl = O=C(C(Cl)Cl)*
assay.readout: Compounds remaining (%) 2 h
Your answer should be a plain number; it is taken to be in %.

Given item NCCCCC(NC(=O)C(CCCCN)NC(=O)CCC(=O)OCC(NC(=O)C(Cl)Cl)C(O)c1ccc([N+](=O)[O-])cc1)C(=O)O (stereo not drawn) [Compound 2b] , the value recorded as its Compounds remaining (%) 2 h is 52.9

// sample O=C(CCC(=O)OCC(NC(=O)C(Cl)Cl)C(O)c1ccc([N+](=O)[O-])cc1)NCC(=O)NC(CO)C(=O)O (stereo not drawn) , its Compounds remaining (%) 2 h was 0

Per the record, O=C(CCC(=O)OCC(NC(=O)C(Cl)Cl)C(O)c1ccc([N+](=O)[O-])cc1)NCC(=O)NCC(=O)NC(Cc1ccccc1)C(=O)NC(Cc1ccccc1)C(=O)O (stereo not drawn) [Compound 1o] (Dichloroacetyl-[X1]GGFF-OH; configuration not given here) has Compounds remaining (%) 2 h of 7.2

---

protocol.notes: Stability in human serum (LC-MS)
Type: in vitro ADME
cond: human serum, 200 μM, 37° C., 24 h
assay.readout: Compounds remaining (%) 24 h
Number only, in %; omit the unit.

For this compound ( NCCCCC(NC(=O)CNC(=O)CCC(=O)OCC(NC(=O)C(Cl)Cl)C(O)c1ccc([N+](=O)[O-])cc1)C(=O)O (stereo not drawn) ), measured Compounds remaining (%) 24 h is 0

Query NCCCCC(NC(=O)C(CCCCN)NC(=O)CCC(=O)OCC(NC(=O)C(Cl)Cl)C(O)c1ccc([N+](=O)[O-])cc1)C(=O)O (stereo not drawn) [Compound 2c] yields Compounds remaining (%) 24 h of 0

Entry O=C(CCC(=O)OCC(NC(=O)C(Cl)Cl)C(O)c1ccc([N+](=O)[O-])cc1)NCC(=O)NC(CO)C(=O)O (stereo not drawn) , Compounds remaining (%) 24 h reported as 0

For record NCCCCC(NC(=O)C(CCCCN)NC(=O)CCC(=O)OCC(NC(=O)C(Cl)Cl)C(O)c1ccc([N+](=O)[O-])cc1)C(=O)O (stereo not drawn) [Compound 2b] the listed Compounds remaining (%) 24 h is 0

Entry under test: O=C(O)CNC(=O)C(CO)NC(=O)CCC(=O)OCC(NC(=O)C(Cl)Cl)C(O)c1ccc([N+](=O)[O-])cc1 (stereo not drawn) . Its Compounds remaining (%) 24 h was 0

// O=C(CCC(=O)OCC(NC(=O)C(Cl)Cl)C(O)c1ccc([N+](=O)[O-])cc1)NCC(=O)NCC(=O)NC(Cc1ccccc1)C(=O)O (stereo not drawn) : Compounds remaining (%) 24 h value = 0

---

protocol.notes: Stability in human serum (LC-MS)
Format: in vitro ADME
cond: human serum, 200 μM, 37° C., 2 h
Exercise: state measured Compounds remaining (%) 2 h for each of the molecules provided.
Numbers only; they are read as %.

// Compounds remaining (%) 2 h lookup, molecule = O=C(O)CCC(=O)OC[C@@H](NC(=O)C(Cl)Cl)[C@H](O)c1ccc([N+](=O)[O-])cc1 [CLsu, chloramphenicol succinate, reference compound] , result: 96.2

Noted for NCCCCC(NC(=O)CNC(=O)CCC(=O)OCC(NC(=O)C(Cl)Cl)C(O)c1ccc([N+](=O)[O-])cc1)C(=O)O (centres unmarked) : its Compounds remaining (%) 2 h reads 0

Recorded Compounds remaining (%) 2 h (molecule NCCCCC(NC(=O)C(CCCCN)NC(=O)CCC(=O)OCC(NC(=O)C(Cl)Cl)C(O)c1ccc([N+](=O)[O-])cc1)C(=O)O (centres unmarked) [Compound 2c] ): 49.2

get_value(item= O=C(O)CNC(=O)C(CO)NC(=O)CCC(=O)OCC(NC(=O)C(Cl)Cl)C(O)c1ccc([N+](=O)[O-])cc1 (centres unmarked) , readout=Compounds remaining (%) 2 h) returns 16.7

The measured Compounds remaining (%) 2 h associated with O=C(CCC(=O)OCC(NC(=O)C(Cl)Cl)C(O)c1ccc([N+](=O)[O-])cc1)NCC(=O)NCC(=O)NC(Cc1ccccc1)C(=O)O (centres unmarked) reads 0

---

Tested on: E. coli (K-12) lysate
protocol.notes: Hydrolysis assay with E. coli lysate
Format: in vitro ADME
cond: compound 200 μM, E. coli lysate 0.1 U/mL, pH 7.4 PBS, 37° C.
So I've got a bunch of compounds here, and I need their apparent first-order rate constant of hydrolysis values.
Dear colleague, please return just the value in h⁻¹, with no unit written.

# compound O=C(O)CNC(=O)CNC(=O)CCC(=O)OCC(NC(=O)C(Cl)Cl)C(O)c1ccc([N+](=O)[O-])cc1 (centres unmarked) ; its apparent first-order rate constant of hydrolysis = -1.868

Kindly note the recorded apparent first-order rate constant of hydrolysis for NCCCCC(NC(=O)C(CCCCN)NC(=O)CCC(=O)OCC(NC(=O)C(Cl)Cl)C(O)c1ccc([N+](=O)[O-])cc1)C(=O)O (centres unmarked) [Compound 2b] , which is 0.317

Query NCCCCC(NC(=O)C(CCCCN)NC(=O)CCC(=O)OCC(NC(=O)C(Cl)Cl)C(O)c1ccc([N+](=O)[O-])cc1)C(=O)O (centres unmarked) [Compound 2c] yields apparent first-order rate constant of hydrolysis of 0.310

For reference, reported apparent first-order rate constant of hydrolysis for O=C(CCC(=O)OCC(NC(=O)C(Cl)Cl)C(O)c1ccc([N+](=O)[O-])cc1)NCC(=O)NC(CO)C(=O)O (centres unmarked) stands at 3.763

Sample O=C(O)CNC(=O)C(CO)NC(=O)CCC(=O)OCC(NC(=O)C(Cl)Cl)C(O)c1ccc([N+](=O)[O-])cc1 (centres unmarked) ; apparent first-order rate constant of hydrolysis observed: 1.267

Entry source: patent US12622975B2
